These data points were gathered from patent US20170334899A1.

Tested on: HeLa
PROTOCOL SUMMARY: Proliferation assay (crystal violet), HeLa
Assay type: cell-based
CONDITIONS: Homo sapiens, HeLa, 96 h, HeLa cells; 4 days incubation; crystal violet staining; read-out: IC50 inhibition of proliferation, HeLa
Consider the following molecules; for each one, report its IC50.
Reply with just the number (in µM).

Req: Please give the measured IC50 for this molecule: Cc1nsc(Nc2cnc3ccccc3n2)c1C(=O)Nc1cccc(C(=O)NCC(=O)OC(C)(C)C)c1 [Example 54]
Resp: 10

Req: Please give the measured IC50 for this molecule: Cc1nsc(Nc2cnc(C(F)(F)F)cn2)c1C(=O)Nc1ccc(OCCCN(C)CC(F)(F)F)nc1 [Example 354]
Resp: 0.33

Req: Please give the measured IC50 for this molecule: CCN1CCN(C(=O)c2ccc(NC(=O)c3c(C)nsc3Nc3cnc(C(F)(F)F)cn3)cc2)CC1 [Example 261]
Resp: 4.8

Req: Please give the measured IC50 for this molecule: Cc1nsc(Nc2cnc3ccccc3n2)c1C(=O)Nc1ccc(NCCNC(=O)OC(C)(C)C)nc1 [Example 244]
Resp: 4.2

Req: Please give the measured IC50 for this molecule: CCCCN1CC[C@H](Oc2ccc(NC(=O)c3c(C)nsc3Nc3cnc(C(F)(F)F)cn3)cn2)[C@H](F)C1 [Example 148]
Resp: 0.37

Req: Please give the measured IC50 for this molecule: Cc1nsc(Nc2cnc(C(F)(F)F)cn2)c1C(=O)Nc1ccc(OC2CCN(C(C)C)CC2)nc1 [Example 160]
Resp: 3.3

Req: Please give the measured IC50 for this molecule: Cc1nsc(Nc2cnc(C(F)(F)F)cn2)c1C(=O)Nc1ccc(O[C@H]2CCN(CC(F)F)C[C@@H]2F)nc1 [Example 362]
Resp: 0.34

Req: Please give the measured IC50 for this molecule: Cc1nsc(Nc2cnc3ccccc3n2)c1C(=O)Nc1cccc(NS(=O)(=O)C2CN(CC(F)F)C2)c1 [Example 286]
Resp: 10

Req: Please give the measured IC50 for this molecule: Cc1nsc(Nc2cnc(C(F)(F)F)cn2)c1C(=O)Nc1ccc(OC2CCN(CC(F)(F)F)CC2)c(F)c1 [Example 163]
Resp: 0.16

Req: Please give the measured IC50 for this molecule: Cc1nsc(Nc2cnc3ccccc3n2)c1C(=O)Nc1cccc(C(=O)N2CCN(C)CC2)c1 [Example 102]
Resp: 10

Req: Please give the measured IC50 for this molecule: Cc1nsc(Nc2ccc(C#N)cn2)c1C(=O)Nc1ccc(OC2CCCNC2)nc1 (stereo not shown) [Example 37]
Resp: 10

Req: Please give the measured IC50 for this molecule: Cc1nsc(Nc2cnc(C(F)(F)F)cn2)c1C(=O)Nc1ccc(OCCN(C)CC(F)F)nc1 [Example 349]
Resp: 0.35

Req: Please give the measured IC50 for this molecule: Cc1nsc(Nc2cnc3ccccc3n2)c1C(=O)Nc1cccc(C(=O)N2CCC(N3CCCCC3)CC2)c1 [Example 61]
Resp: 10

Req: Please give the measured IC50 for this molecule: CCCN1CC[C@@H](Oc2ccc(NC(=O)c3c(C)nsc3Nc3cnc(C(F)(F)F)cn3)cn2)[C@H](F)C1 [Example 371]
Resp: 0.32

Req: Please give the measured IC50 for this molecule: Cc1nsc(Nc2cnc(C(F)(F)F)cn2)c1C(=O)Nc1ccc(C(=O)OC(C)(C)C)cc1 [Example 96]
Resp: 1.1

Req: Please give the measured IC50 for this molecule: Cc1nsc(Nc2cnc(C(F)(F)F)cn2)c1C(=O)Nc1ccc(OC[C@@H]2CCCN(CCC(F)(F)F)C2)nc1 [Example 377]
Resp: 0.37

Req: Please give the measured IC50 for this molecule: Cc1nsc(Nc2ccc(C#N)cn2)c1C(=O)Nc1ccc(OC2CCCN(CC(F)F)C2)nc1 (stereo not shown) [Example 39]
Resp: 1.1

Req: Please give the measured IC50 for this molecule: Cc1nsc(Nc2cnc(C(F)(F)F)cn2)c1C(=O)Nc1ccc(OC[C@H]2CCCN(CCC(F)(F)F)C2)nc1 [Example 378]
Resp: 0.29

Req: Please give the measured IC50 for this molecule: CCNS(=O)(=O)c1ccc(NC(=O)c2c(C)nsc2Nc2cnc3ccccc3n2)cc1 [Example 116]
Resp: 3

Req: Please give the measured IC50 for this molecule: COc1ccc(NC(=O)c2c(C)nsc2Nc2cnc3ccccc3n2)c(CC#N)n1 [Example 235]
Resp: 2.1

Req: Please give the measured IC50 for this molecule: Cc1nsc(Nc2cnc3ccccc3n2)c1C(=O)Nc1cccc(C(=O)N2CCN(CCN(C)C)CC2)c1 [Example 90]
Resp: 10

Req: Please give the measured IC50 for this molecule: Cc1nsc(Nc2cnc3ccccc3n2)c1C(=O)Nc1cccc(NS(=O)(=O)C2CCN(CC(F)F)CC2)c1 [Example 282]
Resp: 6.2

Req: Please give the measured IC50 for this molecule: Cc1nsc(Nc2cnc3ccccc3n2)c1C(=O)Nc1ccc(NCCC(=O)OC(C)(C)C)nc1 [Example 236]
Resp: 4.1

Req: Please give the measured IC50 for this molecule: CC(=O)NCCNC(=O)c1cccc(NC(=O)c2c(C)nsc2Nc2cnc3ccccc3n2)c1 [Example 66]
Resp: 10

Req: Please give the measured IC50 for this molecule: CC(=O)N(C)CCOc1ccc(NC(=O)c2c(C)nsc2Nc2nc3c(C(F)(F)F)cccc3s2)cn1 [Example 112]
Resp: 8.8

Req: Please give the measured IC50 for this molecule: Cc1nsc(Nc2cncc(C(F)(F)F)n2)c1C(=O)Nc1ccc(OCCO)nc1 [Example 276]
Resp: 4.9
